// provenance: patent US20260027208A1

- System Tested: T1, KRAS G12D peptide on HLA-A*11:01 (human)
- T1 peptide: VVVGADGVGK
- Protocol Notes: CD137 by flow cytometry; transduced primary CD4+ and CD8+ T cells, TRAC/TRBC double knockout; G12D peptide titrated (FIG. 3C); full-length, on cells
Experimental Endpoint: EC50 of peptide (nM)
Unit nM implied. Number only.

[Q] If you can, please state the reported EC50 of peptide value of TCR4 (TCR, V domains shown) Valpha: QKEVEQDPGPLSVPEGAIVSLNCTYSNSAFQYFMWYRQYSRKGPELLMYTYSSGNKEDGRFTAQVDKSSKYISLFIRDSQPSDSATYLCAMGALNSGAGSYQLTFGKGTKLSVIP Vbeta: KAGVTQTPRYLIKTRGQQVTLSCSPISGHRSVSWYQQTPGQGLQFLFEYFSETQRNKGNFPGRFSGRQFSNSRSEMNVSTLELGDSALYLCASSLSSGTGTEAFFGQGTRLTVE .
[A] 11.8
